biological target: DNA topoisomerase 1 (Homo sapiens) (UniProt P11387); assay: Inhibition of recombinant DNA topoisomerase 1 (unknown origin) assessed as inhibition of topoisomerase 1-mediated DNA cleavage at 1 to 100 uM after 20 mins by SDS-PAGE analysis relative to control
Calls of active or inactive are those of the source. The rule behind the calls is not given here.
Outcome (select one): active, inactive

CCN(CC)CCOc1nc2c(-c3ccccc3)cnn2c2ccccc12 ... active

Hello, I am checking results. What call was entered for CCN(CC)CCOc1nc2cc(-c3ccccc3)nn2c2ccccc12 ?
active

Hello, I am checking results. What call was entered for Clc1ccc(-c2cnn3c2nc(NCCCc2ncc[nH]2)c2ccccc23)cc1 ?
inactive

Hello, I am checking results. What call was entered for CCN(CC)CCOc1nc2c(-c3ccc(C(F)(F)F)cc3)cnn2c2ccccc12 ?
inactive

Hello, I am checking results. What call was entered for CN(C)CCNc1nc2c(-c3ccc(Cl)cc3)cnn2c2ccccc12 ?
active

Hello, I am checking results. What call was entered for CN(C)CCCn1c(=O)c2ccccc2n2nc(-c3ccccc3)cc12 ?
inactive

====

Target: DNA topoisomerase 1 (Homo sapiens)
Sequence (whole entry): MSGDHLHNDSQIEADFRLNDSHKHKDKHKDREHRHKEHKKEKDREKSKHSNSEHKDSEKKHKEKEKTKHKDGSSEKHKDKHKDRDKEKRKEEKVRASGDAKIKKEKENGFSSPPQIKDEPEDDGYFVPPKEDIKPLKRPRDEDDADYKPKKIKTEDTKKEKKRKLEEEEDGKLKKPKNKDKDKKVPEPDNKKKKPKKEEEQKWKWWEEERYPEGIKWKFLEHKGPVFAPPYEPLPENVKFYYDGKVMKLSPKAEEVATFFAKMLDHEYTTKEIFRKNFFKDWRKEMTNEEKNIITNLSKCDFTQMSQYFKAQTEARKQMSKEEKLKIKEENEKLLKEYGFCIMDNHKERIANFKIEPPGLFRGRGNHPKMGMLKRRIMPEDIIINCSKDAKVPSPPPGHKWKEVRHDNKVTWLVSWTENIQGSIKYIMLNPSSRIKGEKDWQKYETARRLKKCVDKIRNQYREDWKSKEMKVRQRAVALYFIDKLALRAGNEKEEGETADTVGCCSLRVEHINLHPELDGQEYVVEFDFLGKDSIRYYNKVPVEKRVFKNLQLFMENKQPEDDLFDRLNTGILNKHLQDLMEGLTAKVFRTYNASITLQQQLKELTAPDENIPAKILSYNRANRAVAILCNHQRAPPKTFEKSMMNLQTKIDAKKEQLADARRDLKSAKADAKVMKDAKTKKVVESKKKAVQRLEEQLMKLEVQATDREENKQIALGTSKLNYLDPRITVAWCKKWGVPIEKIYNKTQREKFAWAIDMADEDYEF
Assay: Inhibition of recombinant DNA topoisomerase 1 (unknown origin) assessed as inhibition of topoisomerase 1-mediated DNA cleavage at 1 to 100 uM after 20 mins by SDS-PAGE analysis relative to control
Calls of active or inactive are those of the source. The rule behind the calls is not given here.
Outcome (select one): 1.0 = active, 0.0 = inactive

Sample answers from the record:
c1ccc(-c2cnn3c2nc(NCCCc2ncc[nH]2)c2ccccc23)cc1 ... 1.0
COc1ccc(-c2cnn3c2nc(NCCCc2ncc[nH]2)c2ccccc23)cc1 ... 0.0
COc1ccc(-c2cnn3c2nc(NCCCN(C)C)c2ccccc23)cc1 ... 1.0
CN(C)CCCNc1nc2c(-c3ccc(C(F)(F)F)cc3)cnn2c2ccccc12 ... 1.0

Hello, I am checking results. What call was entered for c1ccc(-c2cc3nc(NCCCc4ncc[nH]4)c4ccccc4n3n2)cc1 ?
0.0
